# STUDY_TARGET: CyCsoSCA (Cyanobium sp. PCC 7001)
# Construct: first 116 residues (disordered N-terminal tail) removed; pHue His-ubiquitin fusion, tag cleaved with USP2; homohexamer (trimer of dimers)
# ASSAY_METHOD_TEXT: membrane inlet mass spectrometry […]-exchange CA assay; Hill fit
# MEASUREMENT_SETUP: allosteric activator of bicarbonate dehydration/CO2 hydration; sigmoidal, Hill slope 2.214; 2.7 mM labelled bicarbonate, 50 mM EPPS-NaOH, 20 mM MgCl2, pH 7.8; site near dimer interface (R266, K469, R5)

{"columns": ["COMPOUND", "EC50"],
 "data": [
  ["O=C(COP(=O)(O)O)[C@H](O)[C@H](O)COP(=O)(O)O [RuBP]", "18 µM"]
]}

Values compiled from paper PMC11086599.
